assay info: in vitro
assay conditions: rat, liver
quantity kind: CLint scaled at 100 µM (mL/min/kg)
Write it as a number; the unit mL/min/kg goes unstated.

-- ask Consider the compound shown here: O=C(O)Cc1ccccc1Nc1c(Cl)cccc1Cl What is its recorded CLint scaled at 100 µM?
-- reply 142

---

assay info: Cytotoxicity against HEK293-T-REx cells assessed as reduction in cell viability measured after 72 hrs by resazurin dye based analysis
Assay type: toxicity, Homo sapiens
assay conditions: human, HEK293-T-REx cells
quantity kind: IC50 at 72 h (µM)
Write it as a number; the unit µM goes unstated.

COc1cc(OC)cc(-c2ccnc(-c3cc(OC)cc(OC)c3)n2)c1 = 10

-- ask Consider the molecule shown here: COc1cc(OC)cc(-c2csc(-c3cc(OC)cc(OC)c3)n2)c1 What is its recorded IC50 at 72 h?
-- reply 10

---

This listing pairs compounds with measured pIC50.
study target: UniProtKB Q16678
Sequence (Q16678 whole entry): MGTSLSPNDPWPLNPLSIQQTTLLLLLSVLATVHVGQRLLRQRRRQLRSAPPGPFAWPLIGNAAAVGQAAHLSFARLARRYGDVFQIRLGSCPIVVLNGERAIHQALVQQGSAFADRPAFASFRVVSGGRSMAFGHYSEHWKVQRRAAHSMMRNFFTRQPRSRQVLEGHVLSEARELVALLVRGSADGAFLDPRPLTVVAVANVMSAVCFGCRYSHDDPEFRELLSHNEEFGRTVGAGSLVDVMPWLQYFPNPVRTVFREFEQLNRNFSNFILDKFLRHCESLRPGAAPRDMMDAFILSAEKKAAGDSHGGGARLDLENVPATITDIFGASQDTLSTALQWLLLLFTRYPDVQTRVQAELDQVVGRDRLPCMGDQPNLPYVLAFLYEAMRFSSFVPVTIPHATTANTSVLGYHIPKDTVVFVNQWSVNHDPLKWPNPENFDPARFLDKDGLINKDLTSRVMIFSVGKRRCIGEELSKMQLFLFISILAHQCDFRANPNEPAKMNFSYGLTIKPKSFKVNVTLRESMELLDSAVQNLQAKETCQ
assay info: Inhibition of CYP1B1 (unknown origin) expressed in HEK293-T-REx cells co-expressing POR incubated for 1 hr by resorufin dye based plate reader analysis
Type: ADME, cell-based
pIC50 field: float, defined as -log10 of concentration (mol/L).

COc1ccc(-c2nc(-c3ccc(O)cc3)cs2)c(OC)c1 = 6.22

Please look at the following compound next.
-- ask Consider the compound shown here: C#C[C@]1(O)CC[C@H]2[C@@H]3CCc4cc(O)c(-c5ccc(OC)cc5)cc4[C@H]3CC[C@@]21C What is its recorded pIC50?
-- reply 6.43

---

assay info: Cytotoxicity against HEK293-T-REx cells assessed as reduction in cell viability measured after 72 hrs by resazurin dye based analysis
Format: toxicity, Homo sapiens
assay conditions: hek293-t-rex
pIC50: −log10 of the molar value.
Returns Y if the recorded pIC50 is greater than or equal to 5, and N otherwise.

Worked examples follow.
COc1ccc(-c2nc(-c3cccnc3)cs2)c(OC)c1 = N
COc1ccc(-c2nc(-c3ccc(C#N)cc3)cs2)c(OC)c1 = N
COc1ccc(-c2nc(-c3ccc(F)cc3)cs2)c(OC)c1 = N
COc1cc(/C=C/c2ccc(OC)cc2OC)cc(OC)c1 = Y
COc1cc(OC)cc(-c2cncc(-c3cc(OC)cc(OC)c3)c2)c1 = Y

-- ask Could you verify whether the entry O=c1cc(-c2ccccc2)oc2c1ccc1ccccc12 shows pIC50 of no less than 5?
-- reply N

-- ask Could you verify whether the entry COc1cc(OC)cc(-c2ccc(-c3cc(OC)cc(OC)c3)s2)c1 shows pIC50 of no less than 5?
-- reply N

-- ask Could you verify whether the entry COc1ccc(-c2nc(-c3ccc(O)cc3)cs2)c(OC)c1 shows pIC50 of no less than 5?
-- reply Y

-- ask Could you verify whether the entry COc1ccc(-c2csc(-c3ccc(OC)cc3OC)n2)cc1 shows pIC50 of no less than 5?
-- reply N

-- ask Could you verify whether the entry COc1cc(OC)cc(-c2cccc(-c3cc(OC)cc(OC)c3)c2)c1 shows pIC50 of no less than 5?
-- reply Y

-- ask Could you verify whether the entry COc1ccc(-c2cccc(-c3ccc(OC)cc3OC)c2)c(OC)c1 shows pIC50 of no less than 5?
-- reply Y

---

assay info: in vitro
assay conditions: mouse, liver
quantity kind: CLint scaled at 100 µM (mL/min/kg)
Write it as a number; the unit mL/min/kg goes unstated.

-- ask Consider the molecule shown here: O=C(O)Cc1ccccc1Nc1c(Cl)cccc1Cl [DICLOFENAC] What is its recorded CLint scaled at 100 µM?
-- reply 178

Data origin, for the record: ChEMBL document CHEMBL5325398
